assayed-target: hA3 receptor (Homo sapiens, UniProt P0DMS8)
assay-comment: Radioligand equilibrium displacement assay with [3H]PSB-11 on CHOhA3 membranes
Type: binding
run-conditions: no GTP; 10 °C, 240 min; [3H]PSB-11; CHO cell membranes; ± SEM
Values of pKi greater than or equal to 8 map to satisfied; values below map to not satisfied.

| compound | label |
| --- | --- |
| OC[C@H]1O[C@@H](n2cnc3c(Nc4cccc(Cl)c4)ncnc32)[C@H](O)[C@@H]1O [LUF5501] | not satisfied |
| CNC(=O)[C@H]1O[C@@H](n2cnc3c(N)ncnc32)[C@H](O)[C@@H]1O [MECA, 5′-N-methylcarboxamidoadenosine, reference compound] | not satisfied |
| CNC(=O)C12CC1C(n1cnc3c(NCc4cccc(Cl)c4)nc(C#Cc4ccccc4)nc31)C(O)C2O (centres unmarked) [MRS5655] | satisfied |
| CCCNc1nc(C#Cc2ccc(Cl)s2)nc2c1ncn2[C@H]1[C@H](O)[C@H](O)[C@]2(C(=O)NC)C[C@H]12 [MRS7154] | satisfied |
| CNC(=O)[C@@]12C[C@@H]1[C@@H](n1cnc3c(NC)cc(C#Cc4ccc(Cl)s4)nc31)[C@H](O)[C@@H]2O [MRS7140] | satisfied |
| OC[C@H]1O[C@@H](n2cnc3c(Nc4ccc(I)cc4)ncnc32)[C@H](O)[C@@H]1O [LUF5506] | not satisfied |
| OC[C@H]1O[C@@H](n2cnc3c(Nc4ccc(Cl)cc4)ncnc32)[C@H](O)[C@@H]1O [LUF5500] | not satisfied |
| CNC(=O)C12CC1C(n1cnc3c(NC)nc(C#Cc4ccc(-c5ccccc5)cc4)nc31)C(O)C2O (centres unmarked) [MRS5667] | satisfied |

###

assayed-target: hA3 receptor (Homo sapiens)
Sequence (P0DMS8 1-318): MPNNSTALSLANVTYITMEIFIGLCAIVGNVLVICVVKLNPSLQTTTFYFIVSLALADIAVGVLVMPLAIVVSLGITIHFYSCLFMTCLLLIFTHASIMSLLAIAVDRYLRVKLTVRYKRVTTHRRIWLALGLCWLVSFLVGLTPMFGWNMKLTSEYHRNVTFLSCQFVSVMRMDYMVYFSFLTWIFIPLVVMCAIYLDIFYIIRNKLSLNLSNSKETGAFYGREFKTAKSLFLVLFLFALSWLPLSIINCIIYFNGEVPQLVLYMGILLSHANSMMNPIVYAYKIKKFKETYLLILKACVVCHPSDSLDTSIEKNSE
This section presents molecules with their documented log10 of Kd values.
measured-quantity: log10 of Kd (log10 of the value in nM)

| molecule | log10 of Kd |
| --- | --- |
| OC[C@H]1O[C@@H](n2cnc3c(Nc4cccc(Cl)c4)ncnc32)[C@H](O)[C@@H]1O [LUF5501] | 0.96 |
| CNC(=O)C12CC1C(n1cnc3c(NC)nc(C#Cc4ccc(-c5ccccc5)cc4)nc31)C(O)C2O (centres unmarked) [MRS5667] | -1.24 |
| CCCNc1nc(C#Cc2ccc(Cl)s2)nc2c1ncn2[C@H]1[C@H](O)[C@H](O)[C@]2(C(=O)NC)C[C@H]12 [MRS7154] | -0.82 |
| CNC(=O)C12CC1C(n1cnc3c(NCc4cccc(Cl)c4)nc(C#Cc4ccccc4)nc31)C(O)C2O (centres unmarked) [MRS5655] | -1.34 |
| CNC(=O)[C@@]12C[C@@H]1[C@@H](n1cnc3c(NC)cc(C#Cc4ccc(Cl)s4)nc31)[C@H](O)[C@@H]2O [MRS7140] | -0.57 |
